test system: Plasmodium berghei; test: Luciferase/luciferin-expressing antifolate-resistant parasites were used to infect a culture of HepG2 cells that were pre-incubated with compounds. Infected hepatocytes emit light due to the luciferase reaction. Assay results are presented as the percent inhibition of light emission compared to control. […]; format: functional; settings: sporozoite, PBLUC_HILL_SLOPE 2.8, PBLUC_R_SQUARED 0.541, read-out: LUCIFERASE INFECTION ASSAY - IC50
measure: pIC50
# log scale: pIC50 equals minus log10 of the concentration in mol/L

Prompt: Requested read-out: pIC50. Entry: `Cc1cc(Cl)ccc1OCCCc1nc2ccc(Cl)cc2[nH]1`
Response: 5.13

* * *

system: Plasmodium berghei; assay: Luciferase/luciferin-expressing antifolate-resistant parasites were used to infect a culture of HepG2 cells that were pre-incubated with compounds. Infected hepatocytes emit light due to the luciferase reaction. Assay results are presented as the percent inhibition of light emission compared to control. […]; type: functional; details: sporozoite, HEPG2TOX_HILL_SLOPE 2.12, HEPG2TOX_R_SQUARED 0.919, PBLUC_HILL_SLOPE 1.87, PBLUC_R_SQUARED 0.881, read-out: LUCIFERASE INFECTION ASSAY - IC50
measure: pIC50
# log scale: pIC50 equals minus log10 of the concentration in mol/L

Prompt: Requested read-out: pIC50. Entry: Cc1ccc(C)c(OCC(O)CN2CCN(Cc3nc(-c4ccc(Cl)cc4)no3)CC2)c1 (stereo unspecified)
Response: 5.63

* * *

tested on: Plasmodium berghei; experiment: Luciferase/luciferin-expressing antifolate-resistant parasites were used to infect a culture of HepG2 cells that were pre-incubated with compounds. Infected hepatocytes emit light due to the luciferase reaction. Assay results are presented as the percent inhibition of light emission compared to control. […]; type: functional; conditions: sporozoite, PBLUC_HILL_SLOPE 4.33, PBLUC_R_SQUARED 0.629, read-out: LUCIFERASE INFECTION ASSAY - IC50
measure: IC50 (µM)
Lab book: enter the figure in µM, no units written.

Prompt: Requested read-out: IC50. Entry: `COCOc1ccc(-c2cc(-c3cccc(NC(C)=O)c3)cnc2N)cc1`
Response: 3.59

* * *

tested on: Plasmodium berghei; test: Luciferase/luciferin-expressing antifolate-resistant parasites were used to infect a culture of HepG2 cells that were pre-incubated with compounds. Infected hepatocytes emit light due to the luciferase reaction. Assay results are presented as the percent inhibition of light emission compared to control. […]; format: functional; conditions: sporozoite, HEPG2TOX_HILL_SLOPE 3.39, HEPG2TOX_R_SQUARED 0.524, PBLUC_HILL_SLOPE 1.95, PBLUC_R_SQUARED 0.212, read-out: LUCIFERASE INFECTION ASSAY - IC50
measure: pIC50
# log scale: pIC50 equals minus log10 of the concentration in mol/L

Prompt: Requested read-out: pIC50. Entry: `COc1ccccc1-c1cc(-c2ccccc2N(C)C)cnc1N`
Response: 5.26

* * *

tested on: Plasmodium berghei; assay: Luciferase/luciferin-expressing antifolate-resistant parasites were used to infect a culture of HepG2 cells that were pre-incubated with compounds. Infected hepatocytes emit light due to the luciferase reaction. Assay results are presented as the percent inhibition of light emission compared to control. […]; assay type: functional; conditions: sporozoite, read-out: LUCIFERASE INFECTION ASSAY - IC90
measure: IC90

Look over these answered cases.
compound	system-tested	measurement
Cc1ccc(/C=C/c2ccc3ccccc3[n+]2C)cc1	Plasmodium berghei	> 8.52 µM
Cc1cc(C(=O)CN2CCN(C)CC2)c(C)n1C(c1ccccc1)c1ccccc1	Plasmodium berghei	> 10 µM
N#CC(C#N)=NNc1ccccc1Oc1ccc(Cl)cc1Cl	Plasmodium berghei	> 9.96 µM

Could you now look at the following compound, please?
Prompt: Requested read-out: IC90. Entry: COc1ccc(Cl)cc1NS(=O)(=O)c1cccc(C(=O)OC(C)C(=O)c2cc(C)n(-c3ccccc3)c2C)c1 (stereo not given)
Response: > 10 µM

* * *

test system: Plasmodium berghei; assay: Luciferase/luciferin-expressing antifolate-resistant parasites were used to infect a culture of HepG2 cells that were pre-incubated with compounds. Infected hepatocytes emit light due to the luciferase reaction. Assay results are presented as the percent inhibition of light emission compared to control. […]; assay type: functional; conditions: sporozoite, HEPG2TOX_HILL_SLOPE 0.453, HEPG2TOX_R_SQUARED 0.602, PBLUC_HILL_SLOPE 0.932, PBLUC_R_SQUARED 0.666, read-out: LUCIFERASE INFECTION ASSAY - IC50
measure: IC50 (nM)
Lab book: enter the figure in nM, no units written.

Prompt: Requested read-out: IC50. Entry: `COc1cccc(-c2cnc3c(NC=O)cc(-c4ccc(OC)cc4OC)cn23)c1`
Response: 62.9

* * *

tested on: Plasmodium berghei; assay: Luciferase/luciferin-expressing antifolate-resistant parasites were used to infect a culture of HepG2 cells that were pre-incubated with compounds. Infected hepatocytes emit light due to the luciferase reaction. Assay results are presented as the percent inhibition of light emission compared to control. […]; format: functional; settings: sporozoite, HEPG2TOX_HILL_SLOPE 0.901, HEPG2TOX_R_SQUARED 0.0979, read-out: LUCIFERASE INFECTION ASSAY - IC50
pIC50: −log10 of the molar value.
measure: pIC50

Prompt: Requested read-out: pIC50. Entry: `CCN(CC)S(=O)(=O)c1cccc(-c2nnc(SCc3nc(=O)c4cccc(C)c4[nH]3)n2CC(C)C)c1`
Response: < 5.00

* * *

test system: Plasmodium berghei; assay: Luciferase/luciferin-expressing antifolate-resistant parasites were used to infect a culture of HepG2 cells that were pre-incubated with compounds. Infected hepatocytes emit light due to the luciferase reaction. Assay results are presented as the percent inhibition of light emission compared to control. […]; format: functional; details: sporozoite, HEPG2TOX_HILL_SLOPE 0.628, HEPG2TOX_R_SQUARED 0.884, read-out: LUCIFERASE INFECTION ASSAY - IC50
measure: IC50

Prompt: Requested read-out: IC50. Entry: `O=C1CCCN1c1ccc(CNc2ccccc2S(=O)(=O)C(F)(F)F)cc1`
Response: > 10 µM

* * *

test system: Plasmodium berghei; experiment: Luciferase/luciferin-expressing antifolate-resistant parasites were used to infect a culture of HepG2 cells that were pre-incubated with compounds. Infected hepatocytes emit light due to the luciferase reaction. Assay results are presented as the percent inhibition of light emission compared to control. […]; format: functional; settings: sporozoite, PBLUC_HILL_SLOPE 0.649, PBLUC_R_SQUARED 0.141, read-out: LUCIFERASE INFECTION ASSAY - IC50
pIC50: −log10 of the molar value.
measure: pIC50

Prompt: So what pIC50 did `Cc1ccc(OCC(=O)N(Cc2ccccc2)c2c(N)n(Cc3ccccc3)c(=O)[nH]c2=O)c(C)c1` get with Plasmodium berghei?
Response: < 5.00

* * *

tested on: Plasmodium berghei; assay: Luciferase/luciferin-expressing antifolate-resistant parasites were used to infect a culture of HepG2 cells that were pre-incubated with compounds. Infected hepatocytes emit light due to the luciferase reaction. Assay results are presented as the percent inhibition of light emission compared to control. […]; format: functional; settings: sporozoite, PBLUC_HILL_SLOPE 11.3, PBLUC_R_SQUARED 0.654, read-out: LUCIFERASE INFECTION ASSAY - IC50
measure: IC50
Number plus unit, in that order.

Prompt: Requested read-out: IC50. Entry: `O=C(COC(=O)c1ccc2[nH]c3c(c2c1)CCCC3)c1ccc2c(c1)OCCO2`
Response: 8.17 µM

* * *

system: Plasmodium berghei; assay: Luciferase/luciferin-expressing antifolate-resistant parasites were used to infect a culture of HepG2 cells that were pre-incubated with compounds. Infected hepatocytes emit light due to the luciferase reaction. Assay results are presented as the percent inhibition of light emission compared to control. […]; type: functional; details: sporozoite, FFLUC_HILL_SLOPE 2.83, FFLUC_R_SQUARED 0.688, HEPG2TOX_HILL_SLOPE 16.1, HEPG2TOX_R_SQUARED 0.632, PBLUC_HILL_SLOPE 13, PBLUC_R_SQUARED 0.649, read-out: LUCIFERASE INFECTION ASSAY - IC50
measure: IC50 (nM)
Lab book: enter the figure in nM, no units written.

Prompt: Requested read-out: IC50. Entry: `COC(CNC(=S)c1c(-c2ccc(Cl)cc2)c2c3n(c(-c4cccc(S(=O)(=O)N5CCOCC5)c4)nn13)CCCC2)OC`
Response: 383

* * *

test system: Plasmodium berghei; experiment: Luciferase/luciferin-expressing antifolate-resistant parasites were used to infect a culture of HepG2 cells that were pre-incubated with compounds. Infected hepatocytes emit light due to the luciferase reaction. Assay results are presented as the percent inhibition of light emission compared to control. […]; format: functional; conditions: sporozoite, HEPG2TOX_HILL_SLOPE 8.61, HEPG2TOX_R_SQUARED 0.753, PBLUC_HILL_SLOPE 13.4, PBLUC_R_SQUARED 0.628, read-out: LUCIFERASE INFECTION ASSAY - IC50
measure: pIC50
# log scale: pIC50 equals minus log10 of the concentration in mol/L

Prompt: So what pIC50 did `COc1ccc(-c2cnc(N)c(-c3ccc(O)c(OC)c3)c2)cc1` get with Plasmodium berghei?
Response: 5.49
